Experiment: Evaluation of conversion rate to active form in buffer solution (Experimental Example 1)
Type: physicochemical
Conditions: pH6.5, 0 hr
attribute.measured: Production rate of Alvocidib (%)
Supply the numeric figure in %, leaving out any unit text.

Here's what some known entries look like.
compound	unit.string	Production rate of Alvocidib
CCOC(=O)O[C@@H]1CN(C)CC[C@@H]1c1c(O)cc(O)c2c(=O)cc(-c3ccccc3Cl)oc12 [Comparative Example 3, reference compound]	%	1.1
CNCCN(C)C(=O)Oc1cc(O)c2c(=O)cc(-c3ccccc3Cl)oc2c1[C@H]1CCN(C)C[C@H]1O [Comparative Example 14, reference compound]	%	3.2
CNC(=O)O[C@@H]1CN(C)CC[C@@H]1c1c(O)cc(O)c2c(=O)cc(-c3ccccc3Cl)oc12 [Comparative Example 5, reference compound]	%	0.0

Next compound, Production rate of Alvocidib to be filled in.
Provide Production rate of Alvocidib value for the following compound: CCNC(=O)O[C@@H]1CN(C)CC[C@@H]1c1c(O)cc(O)c2c(=O)cc(-c3ccccc3Cl)oc12 [Comparative Example 4, reference compound]
1.8

---

# Residual rate per entry
Assay: Stability evaluation of solution formulation (Experimental Example 2)
Type: physicochemical
Settings: solution formulation, pH4.0, 0 week
Supply the numeric figure in %, leaving out any unit text.

compound	Residual rate (%)
CN1CC[C@H](c2c(OC(=O)N(C)CCN)cc(O)c3c(=O)cc(-c4ccccc4Cl)oc23)[C@H](O)C1 [Comparative Example 13, reference compound]	99.4
CCN(C[C@H]1CCCCN1)C(=O)Oc1cc(O)c2c(=O)cc(-c3ccccc3Cl)oc2c1[C@H]1CCN(C)C[C@H]1O	96.4
CCCN(C[C@H]1CCCCN1)C(=O)Oc1cc(O)c2c(=O)cc(-c3ccccc3Cl)oc2c1[C@H]1CCN(C)C[C@H]1O	98.8

Provide Residual rate value for the following compound: CNCCN(C)C(=O)Oc1cc(O)c2c(=O)cc(-c3ccccc3Cl)oc2c1[C@H]1CCN(C)C[C@H]1O [Comparative Example 14, reference compound]
97.5

Provide Residual rate value for the following compound: CCCN(C[C@@H]1CCCCN1)C(=O)Oc1cc(O)c2c(=O)cc(-c3ccccc3Cl)oc2c1[C@H]1CCN(C)C[C@H]1O
98.2

---

Test: Evaluation of conversion rate to active form in buffer solution (Experimental Example 1)
Assay type: physicochemical
Details: pH7.4, 0.5 hr, 37° C., 25 umol/L in buffer solution
attribute.measured: Residual rate (%)
Supply the numeric figure in %, leaving out any unit text.

Provide Residual rate value for the following compound: CN1CC[C@H](c2c(OC(=O)N(CCCC(F)(F)F)CC3CCCCN3)cc(O)c3c(=O)cc(-c4ccccc4Cl)oc23)[C@H](O)C1 (stereo partly shown) [Example 14]
4.6

Provide Residual rate value for the following compound: CCNC(=O)Oc1cc(O)c2c(=O)cc(-c3ccccc3Cl)oc2c1[C@H]1CCN(C)C[C@H]1O [Comparative Example 1, reference compound]
0.9

Provide Residual rate value for the following compound: CCCN(C[C@H]1CCCCN1)C(=O)Oc1cc(O)c2c(=O)cc(-c3ccccc3Cl)oc2c1[C@H]1CCN(C)C[C@H]1O [Example 6]
36.3

---

# Production rate of Alvocidib per entry
Test: Stability evaluation of solution formulation (Experimental Example 2)
Type: physicochemical
Conditions: solution formulation, pH5.0, 4 week
Record the result as number plus unit.

molecule	attribute.measured	meas.value
CNCCN(C)C(=O)Oc1cc(O)c2c(=O)cc(-c3ccccc3Cl)oc2c1[C@H]1CCN(C)C[C@H]1O [Comparative Example 14, reference compound]	Production rate of Alvocidib	97.1%
CCCN(C[C@@H]1CCCCN1)C(=O)Oc1cc(O)c2c(=O)cc(-c3ccccc3Cl)oc2c1[C@H]1CCN(C)C[C@H]1O	Production rate of Alvocidib	3.7%
CCCN(C[C@H]1CCCCN1)C(=O)Oc1cc(O)c2c(=O)cc(-c3ccccc3Cl)oc2c1[C@H]1CCN(C)C[C@H]1O	Production rate of Alvocidib	4.6%
CN1CC[C@H](c2c(OC(=O)N(C)CCN)cc(O)c3c(=O)cc(-c4ccccc4Cl)oc23)[C@H](O)C1 [Comparative Example 13, reference compound]	Production rate of Alvocidib	39.4%
CCN(C[C@@H]1CCCCN1)C(=O)Oc1cc(O)c2c(=O)cc(-c3ccccc3Cl)oc2c1[C@H]1CCN(C)C[C@H]1O [Example 1, ditrifluoroacetate]	Production rate of Alvocidib	3.2%

Provide Production rate of Alvocidib value for the following molecule: CCN(C[C@H]1CCCCN1)C(=O)Oc1cc(O)c2c(=O)cc(-c3ccccc3Cl)oc2c1[C@H]1CCN(C)C[C@H]1O
3.1%

---

Assay: Evaluation of conversion rate to active form in buffer solution (Experimental Example 1)
Assay type: physicochemical
Settings: pH6.0, 1 hr, 37° C., 25 umol/L in buffer solution
# Production rate of Alvocidib per entry
Supply the numeric figure in %, leaving out any unit text.

Here's what some known entries look like.
compound	unit.string	Production rate of Alvocidib
CN1CC[C@H](c2c(OC(=O)N(CCC(F)(F)F)CC3CCCCN3)cc(O)c3c(=O)cc(-c4ccccc4Cl)oc23)[C@H](O)C1 (stereo partly shown)	%	21.6
CCCN(C[C@@H]1CCCCN1)C(=O)Oc1cc(O)c2c(=O)cc(-c3ccccc3Cl)oc2c1[C@H]1CCN(C)C[C@H]1O	%	6.6
CN1CC[C@H](c2c(OC(=O)N(Cc3ccccc3)CC3CCCCN3)cc(O)c3c(=O)cc(-c4ccccc4Cl)oc23)[C@H](O)C1 (stereo partly shown)	%	12.4

Next compound, Production rate of Alvocidib to be filled in.
Provide Production rate of Alvocidib value for the following compound: CCCN(CC1CCCCN1)C(=O)Oc1cc(O)c2c(=O)cc(-c3ccccc3Cl)oc2c1[C@H]1CCN(C)C[C@H]1O (stereo partly shown)
8.2

---

Test: Evaluation of conversion rate to active form in buffer solution (Experimental Example 1)
Format: physicochemical
Settings: pH6.0, 3 hr, 37° C., 25 umol/L in buffer solution
Experimental: For Examples 1 to 16 and Comparative Examples 1 to 14, the attrition rate of the test compound and the conversion rate of the test compound to Alvocidib in a buffer solution were calculated by the following method. Examples 1 to 16 and Comparative Examples 1 to 14 were each left in buffer solutions adjusted to pH 5.0, 5.5, 6.0, 6.5, 7.0 and 7.4, respectively, at a concentration of 25 umol/L at 37° C. […]
attribute.measured: Production rate of Alvocidib (%)
Supply the numeric figure in %, leaving out any unit text.

Here's what some known entries look like.
molecule	attribute.measured	unit.string	meas.value
CN1CC[C@H](c2c(OC(=O)N(CCCC(F)(F)F)CC3CCCCN3)cc(O)c3c(=O)cc(-c4ccccc4Cl)oc23)[C@H](O)C1 (stereo partly drawn)	Production rate of Alvocidib	%	55.9
CN1CC[C@H](c2c(OC(=O)N(C)C[C@H]3CCCCN3)cc(O)c3c(=O)cc(-c4ccccc4Cl)oc23)[C@H](O)C1	Production rate of Alvocidib	%	16.6
COCCN(CC1CCCCN1)C(=O)Oc1cc(O)c2c(=O)cc(-c3ccccc3Cl)oc2c1[C@H]1CCN(C)C[C@H]1O (stereo partly drawn)	Production rate of Alvocidib	%	26.9

Provide Production rate of Alvocidib value for the following molecule: CN1CC[C@H](c2c(OC(=O)N(Cc3ccccc3)CC3CCCCN3)cc(O)c3c(=O)cc(-c4ccccc4Cl)oc23)[C@H](O)C1 (stereo partly drawn)
25.7

Provide Production rate of Alvocidib value for the following molecule: CCNC(=O)Oc1cc(O)c2c(=O)cc(-c3ccccc3Cl)oc2c1[C@H]1CCN(C)C[C@H]1O [Comparative Example 1, reference compound]
99.0

Provide Production rate of Alvocidib value for the following molecule: CCCN(CC1CCCCN1)C(=O)Oc1cc(O)c2c(=O)cc(-c3ccccc3Cl)oc2c1[C@H]1CCN(C)C[C@H]1O (stereo partly drawn)
20.8

---

# Residual rate (%) of test compound per entry
Experiment: Evaluation of conversion rate to active form in BALB/c mouse plasma (Experimental Example 3)
Format: in vitro ADME
Settings: Mouse plasma, 0.2 μmol/L, 37° C., 60 min
Supply the numeric figure in %, leaving out any unit text.

Provide Residual rate (%) of test compound value for the following compound: CCN(C[C@@H]1CCCCN1)C(=O)Oc1cc(O)c2c(=O)cc(-c3ccccc3Cl)oc2c1[C@H]1CCN(C)C[C@H]1O [Example 1, ditrifluoroacetate]
3

Provide Residual rate (%) of test compound value for the following compound: CN1CC[C@H](c2c(OC(=O)N(C)C[C@@H]3CCCCN3)cc(O)c3c(=O)cc(-c4ccccc4Cl)oc23)[C@H](O)C1 [Example 3]
0

Provide Residual rate (%) of test compound value for the following compound: CCCN(C[C@@H]1CCCCN1)C(=O)Oc1cc(O)c2c(=O)cc(-c3ccccc3Cl)oc2c1[C@H]1CCN(C)C[C@H]1O [Example 5]
8

Provide Residual rate (%) of test compound value for the following compound: CN1CC[C@H](c2c(OC(=O)N(C)C[C@H]3CCCCN3)cc(O)c3c(=O)cc(-c4ccccc4Cl)oc23)[C@H](O)C1 [Example 4]
3

Provide Residual rate (%) of test compound value for the following compound: CCN(C[C@H]1CCCCN1)C(=O)Oc1cc(O)c2c(=O)cc(-c3ccccc3Cl)oc2c1[C@H]1CCN(C)C[C@H]1O [Example 2]
4

Provide Residual rate (%) of test compound value for the following compound: CCCN(C[C@H]1CCCCN1)C(=O)Oc1cc(O)c2c(=O)cc(-c3ccccc3Cl)oc2c1[C@H]1CCN(C)C[C@H]1O [Example 6]
2
